biological target: ERAlpha receptor (Homo sapiens); construct: purchased PanVera; test: Competition binding assay with 3H-Estradiol, ERAlpha receptor; details: IC50 converted to Ki using Cheng-Prusoff equation; 3H-Estradiol competition; read-out: ER binding Ki (ERα)
Sequence (P03372 whole entry): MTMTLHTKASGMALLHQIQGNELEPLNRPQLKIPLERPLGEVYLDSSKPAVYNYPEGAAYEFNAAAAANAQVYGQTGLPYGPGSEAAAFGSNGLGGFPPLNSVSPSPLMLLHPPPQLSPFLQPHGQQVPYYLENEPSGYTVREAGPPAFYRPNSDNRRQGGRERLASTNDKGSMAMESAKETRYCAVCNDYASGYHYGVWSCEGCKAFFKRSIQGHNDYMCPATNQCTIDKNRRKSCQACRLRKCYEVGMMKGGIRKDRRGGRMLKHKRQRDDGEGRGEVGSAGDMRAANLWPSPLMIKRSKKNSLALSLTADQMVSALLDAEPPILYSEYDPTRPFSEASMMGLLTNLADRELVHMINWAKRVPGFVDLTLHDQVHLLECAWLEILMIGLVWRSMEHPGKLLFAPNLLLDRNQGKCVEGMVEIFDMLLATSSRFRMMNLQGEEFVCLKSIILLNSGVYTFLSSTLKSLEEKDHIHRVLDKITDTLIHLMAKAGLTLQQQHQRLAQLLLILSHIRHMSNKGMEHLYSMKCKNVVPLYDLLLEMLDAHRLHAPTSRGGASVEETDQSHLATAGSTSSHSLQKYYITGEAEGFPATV
Assay Readout: pKi
The read-out pKi is expressed as -log10 of concentration in moles per litre.

Query :: So what's the measured pKi for this one? Oc1ccc2c3c(sc2c1)Cc1ccccc1OC3c1ccc(OCCN2CCCCC2)cc1 (stereo not shown)
Result :: 9.00
